The origin of these recorded values is ChEMBL document CHEMBL5244223.

pIC50: recorded values
Tested on: SW-620
assayName: Cytotoxicity against human SW620 cells assessed as cell growth inhibition incubated for 48 hrs by sulforhodamine B reagent assay
Type: functional, cell-based
conditionDetails: SW-620, 48 h
pIC50: −log10 of the molar value.
readoutName: pIC50

1. O=C1c2cccc3cccc(c23)C(=O)N1CCCCOc1ccc(-c2nc3ccc(N4CCOCC4)cc3[nH]2)cc1 : 6.96
2. CN1CCN(c2ccc3nc(-c4ccc(OCCCN5C(=O)c6cccc7cccc(c67)C5=O)cc4)[nH]c3c2)CC1 : 6.96

###

System: HeLa
assayName: Cytotoxicity against human HeLa cells assessed as inhibition of cell growth incubated for 48 hrs by MTT assay
Format: functional, cell-based
readoutName: IC50 (µM)

1. CN(C)CCN1C(=O)c2cccc3c(-n4nc(C(F)(F)F)cc4-c4ccccc4)ccc(c23)C1=O : 5.06
2. CCCOc1cccc(-c2cc(C(F)(F)F)nn2-c2ccc3c4c(cccc24)C(=O)N(CCN(C)C)C3=O)c1 : 5.06
3. CCCOc1ccccc1-c1cc(C(F)(F)F)nn1-c1ccc2c3c(cccc13)C(=O)N(CCN(C)C)C2=O : 5.06
4. CN(C)CCN1C(=O)c2cccc3cc(NC(=O)CCCN)cc(c23)C1=O : 21.5
5. CN(C)CCN1C(=O)c2cccc3cc(NC(=O)CCCCCNC(=O)C(Cl)Cl)cc(c23)C1=O : 21.5
6. CN(C)CCN1C(=O)c2cccc3cc(NC(=O)CN)cc(c23)C1=O : 21.5
7. CN(C)CCN1C(=O)c2cccc3cc(NC(=O)CCN)cc(c23)C1=O : 21.5
8. CN(C)CCN1C(=O)c2cccc3cc(NC(=O)CCCNC(=O)C(Cl)Cl)cc(c23)C1=O : 21.5
9. CCOc1ccc(-c2cc(C(F)(F)F)nn2-c2ccc3c4c(cccc24)C(=O)N(CCN(C)C)C3=O)cc1 : 5.06
10. COc1ccc(-c2cc(C(F)(F)F)nn2-c2ccc3c4c(cccc24)C(=O)N(CCN(C)C)C3=O)cc1OC : 5.06
11. CN(C)CCN1C(=O)c2cccc3cc(NC(=O)CNC(=O)C(Cl)Cl)cc(c23)C1=O : 21.5
12. CCCCOc1ccccc1-c1cc(C(F)(F)F)nn1-c1ccc2c3c(cccc13)C(=O)N(CCN(C)C)C2=O : 5.06
13. COc1ccc(-c2cc(C(F)(F)F)nn2-c2ccc3c4c(cccc24)C(=O)N(CCN(C)C)C3=O)cc1 : 5.06
14. CCOc1ccccc1-c1cc(C(F)(F)F)nn1-c1ccc2c3c(cccc13)C(=O)N(CCN(C)C)C2=O : 5.06
15. COc1cc(-c2cc(C(F)(F)F)nn2-c2ccc3c4c(cccc24)C(=O)N(CCN(C)C)C3=O)cc(OC)c1OC : 5.06
16. COc1ccccc1-c1cc(C(F)(F)F)nn1-c1ccc2c3c(cccc13)C(=O)N(CCN(C)C)C2=O : 5.06
17. CCCCOc1ccc(-c2cc(C(F)(F)F)nn2-c2ccc3c4c(cccc24)C(=O)N(CCN(C)C)C3=O)cc1 : 5.06
18. Cc1ccc(-c2cc(C(F)(F)F)nn2-c2ccc3c4c(cccc24)C(=O)N(CCN(C)C)C3=O)cc1 : 5.06
19. CCCCOc1cccc(-c2cc(C(F)(F)F)nn2-c2ccc3c4c(cccc24)C(=O)N(CCN(C)C)C3=O)c1 : 5.06
20. COc1cccc(-c2cc(C(F)(F)F)nn2-c2ccc3c4c(cccc24)C(=O)N(CCN(C)C)C3=O)c1 : 5.06
